Each item that follows carries a reported IC50.
test system: breast line MDA468; experiment: In vitro cell culture growth assay (MTS), MDA468; assay type: cell-based, human; details: Homo sapiens, 72 h, MDA468 cells, three days after drug treatment
observable: IC50

compound: COC(=O)Nc1ccc(-c2nc(N3CCOCC3)c3cnn(C4CCN(C(=O)OC)CC4)c3n2)cc1 [Compound 739]
observable: IC50
val: 1750 nM
//
compound: CNC(=O)Nc1ccc(-c2nc(N3CCOCC3)c3cnn(C4CCN(C(=O)c5cccnc5)CC4)c3n2)cc1
observable: IC50
val: 600 nM
//
compound: COC(=O)N1CCC(n2ncc3c(N4CCOCC4)nc(-c4ccc(NC(=O)Nc5ccc(CCN6CCOCC6)cc5)cc4)nc32)CC1
observable: IC50
val: 180 nM
//
compound: NC(=O)c1ccc(-c2nc(N3CCOCC3)c3cnn(-c4ccccc4)c3n2)cc1
observable: IC50
val: 60000 nM

====

tested on: breast line MDA468; assay: In vitro cell culture growth assay (MTS), MDA468; type: cell-based, human; conditions: Homo sapiens, 72 h, MDA468 cells, three days after drug treatment
Checkbox rule: IC50 lower than 2000 nM = 1.0; IC50 not lower than 2000 nM = 0.0.

compound: COC(=O)N1CCC(n2ncc3c(N4CCOC(C)C4)nc(-c4ccc(NC(=O)NCCF)cc4)nc32)CC1 (centres unmarked)
discrete_label: 1.0
--
compound: O=C(Nc1ccc(-c2nc(N3CCOCC3)c3cnn(C4CCN(CC(F)(F)F)CC4)c3n2)cc1)Nc1cccnc1
discrete_label: 1.0
--
compound: CCOC(=O)N1CCC(n2ncc3c(N4CCOCC4)nc(-c4ccc(NC(=O)Nc5ccccn5)cc4)nc32)CC1
discrete_label: 0.0
--
compound: CC(C)OC(=O)N1CCC(n2ncc3c(N4CCOCC4)nc(-c4ccc(NC(=O)NCCO)cc4)nc32)CC1
discrete_label: 1.0
--
compound: c1ccc(N2CCC(n3ncc4c(N5CCOCC5)nc(-c5ccc6[nH]ccc6c5)nc43)CC2)nc1
discrete_label: 1.0
--
compound: CNC(=O)Nc1ccc(-c2nc(N3CCOCC3)c3cnn(C4CCN(CC(N)=O)CC4)c3n2)cc1 [Compound 576]
discrete_label: 1.0
--
compound: O=C(Nc1ccccc1)Nc1cc(F)c(-c2nc(N3CCOCC3)c3cnn(C4CCN(C(=O)c5cccnc5)CC4)c3n2)cc1F
discrete_label: 1.0
--
compound: COC(=O)Nc1ccc(-c2nc(N3CCOCC3)c3cnn(C4CCN(Cc5cccnc5)CC4)c3n2)cc1
discrete_label: 1.0
--
compound: c1cc2cc(-c3nc(N4CCOCC4)c4cnn(CCN5CCCCC5)c4n3)ccc2[nH]1
discrete_label: 0.0
--
compound: CCOC(=O)N1CCC(n2ncc3c(N4CCOCC4)nc(-c4ccc(NC(=O)Nc5ccncc5)cc4)nc32)CC1
discrete_label: 1.0
--
compound: COC(=O)Nc1ccc(-c2nc(N3CCOCC3)c3cnn(C4CCN(C(=O)OC(C)C)CC4)c3n2)cc1
discrete_label: 1.0
--
compound: O=C1CCCN1CCn1ncc2c(N3CCOCC3)nc(-c3cccc(O)c3)nc21
discrete_label: 0.0
--
compound: O=C(NCCO)Nc1ccc(-c2nc(N3CCOCC3)c3cnn(C4CCNCC4)c3n2)cc1
discrete_label: 0.0
--
compound: CNC(=O)Nc1ccc(-c2nc(N3CCOCC3)c3cnn(C4CCN(C(=O)c5cccnc5C)CC4)c3n2)cc1 [Example 329]
discrete_label: 1.0
--
compound: CCOC(=O)N1CCC(n2ncc3c(N4CCOCC4)nc(-c4ccc(NC(=O)Nc5cccnc5)cc4)nc32)CC1
discrete_label: 1.0
--
compound: CCSC(=O)N1CCC(n2ncc3c(N4CCOCC4)nc(-c4ccc(NC(=O)OC)cc4)nc32)CC1
discrete_label: 0.0
--
compound: CC(C)(C)OC(=O)N1CCC[C@@H](n2ncc3c(N4CCOCC4)nc(-c4ccc5[nH]ccc5c4)nc32)C1
discrete_label: 0.0
--
compound: Nc1ncc(-c2nc(N3CCOCC3)c3cnn(C4CCN(C(=O)c5cccnc5)CC4)c3n2)cn1
discrete_label: 1.0
--
compound: CCOC(=O)Nc1ccc(-c2nc(N3CCOCC3)c3cnn(C4CCN(C(=O)c5ccccc5)CC4)c3n2)cc1
discrete_label: 0.0
--
compound: Oc1cccc(-c2nc(N3CCOCC3)c3cnn(C4CCN(Cc5ccc(Cl)cc5)CC4)c3n2)c1
discrete_label: 1.0
--
compound: CNS(=O)(=O)Nc1ccc(-c2nc(N3CCOCC3)c3cnn(C4CCN(C(=O)OC(C)(C)C)CC4)c3n2)cc1
discrete_label: 0.0
--
compound: CC(C)C(=O)N1CCC(n2ncc3c(N4CCOCC4)nc(-c4ccc(NC(=O)NC5CC5)cc4)nc32)CC1
discrete_label: 1.0
--
compound: C=CCN1CCC(n2ncc3c(N4CCOCC4)nc(-c4ccc(NC(=O)NC)cc4)nc32)CC1
discrete_label: 1.0
--
compound: CNC(=O)Nc1ccc(-c2nc(N3CCOCC3)c3cnn(C4CCN(Cc5ccc(F)cc5)CC4)c3n2)cc1
discrete_label: 1.0
--
compound: CC(C)(C)OC(=O)N1CCC[C@H](n2ncc3c(N4CCOCC4)nc(-c4ccc(N)cc4)nc32)C1
discrete_label: 0.0
--
compound: CNC(=O)Nc1ccc(-c2nc(N3CCOCC3)c3cnn(C4CCN(CCCCO)CC4)c3n2)cc1
discrete_label: 0.0
--
compound: CCOC(=O)CN1CCC(n2ncc3c(N4CCOCC4)nc(-c4ccc(NC(=O)NC)cc4)nc32)CC1
discrete_label: 1.0
--
compound: O=C(NCC1CC1)Nc1ccc(-c2nc(N3CCOCC3)c3cnn(C4CCN(Cc5ccccc5)CC4)c3n2)cc1 [Example 262]
discrete_label: 0.0
--
compound: O=C(NCCO)Nc1ccc(-c2nc(N3CCOCC3)c3cnn(C4CCN(Cc5cccnc5)CC4)c3n2)cc1 [Compound 561]
discrete_label: 1.0
